Tested on: chloroquine-sensitive P. falciparum (NF54)
methodSummary: Antimalarial activity in vitro, [3H]hypoxanthine incorporation
Type: cell-based
recordedMetric: IC50

molecule="CC1CCC2C(C)C(CC(O)(COC(=O)c3ccc[n+]([O-])c3)CC3OC4OC5(C)CCC6C(C)CCC(C3C)C46OO5)OC3OC4(C)CCC1C32OO4 (stereo not drawn) [Compound 23]" recordedresult=sub-nanomolar
molecule="CC1CCC2C(C)C(CC(O)(CC3OC4OC5(C)CCC6C(C)CCC(C3C)C46OO5)CS(=O)(=O)N(C)C)OC3OC4(C)CCC1C32OO4 (stereo not drawn) [Compound 40]" recordedresult=sub-nanomolar
molecule="CC1CCC2C(C)C(CC3(CC4OC5OC6(C)CCC7C(C)CCC(C4C)C57OO6)COC(=O)O3)OC3OC4(C)CCC1C32OO4 (stereo not drawn) [Compound 41]" recordedresult=sub-nanomolar

###

Tested on: IGROVI
methodSummary: NCI 60 cell line panel screen (SRB)
Format: cell-based, human
conditionSummary: Ovarian Cancer, IGROVI
Listed next: entries and their corresponding Log10GI50.
Format: numeric value only, no unit, no commentary.

compound="C[C@@H]1CC[C@H]2[C@@H](C)C(CC(O)(COC(=O)CCC(=O)O)CC3OC4O[C@]5(C)CC[C@H]6[C@H](C)CC[C@@H]([C@H]3C)C46OO5)OC3O[C@]4(C)CCC1C32OO4 (stereo partly drawn) [Compound 9, tertiary alcohol primary succinate ester]" recordedmetric=Log10GI50 recordedresult=−4.97
compound="CC1CCC2C(C)C(CC(COC(=O)c3cc[n+]([O-])cc3)CC3OC4OC5(C)CCC6C(C)CCC(C3C)C46OO5)OC3OC4(C)CCC1C32OO4 (stereo not drawn)" recordedmetric=Log10GI50 recordedresult=−5.36

Consider the additional compound presented here.
Item under review: C[C@@H]1CC[C@H]2[C@@H](C)C(CC(O)(CC3OC4O[C@]5(C)CC[C@H]6[C@H](C)CC[C@@H]([C@H]3C)C46OO5)c3ccc(C(=O)O)cc3)OC3O[C@]4(C)CCC1C32OO4 (stereo partly drawn) [Compound 11b] . Reported Log10GI50?
−5.98

###

System: chloroquine-sensitive P. falciparum (NF54)
methodSummary: Antimalarial activity in vitro, [3H]hypoxanthine incorporation
Format: cell-based
conditionSummary: Plasmodium falciparum, NF54, running text b206, artemisinin; read-out: IC50
recordedMetric: pIC50
To interpret pIC50, take it as minus log10 of a concentration measured in moles per litre.

Item under review: C[C@@H]1CC[C@H]2[C@@H](C)C(=O)O[C@@H]3O[C@]4(C)CC[C@@H]1[C@]32OO4 [Artemisinin] . Reported pIC50?
8.11

###

Test system: LOX IMVI
methodSummary: NCI 60 cell line panel screen (SRB)
Format: cell-based, human
conditionSummary: LOX IMVI (Melanoma); TGI: PG=0
Listed next: entries and their corresponding Log10TGI50.
Give the value in log10M but do not write log10M after it.

Would you please look over these solved cases?
compound="CC1CCC2C(C)C(CC(O)(CO)CC3OC4OC5(C)CCC6C(C)CCC(C3C)C46OO5)OC3OC4(C)CCC1C32OO4 (stereo not shown)" recordedresult=−5.47
compound="CC(=O)O[C@H]1C(=O)[C@@]2(C)[C@H]([C@H](OC(=O)c3ccccc3)[C@]3(O)C[C@H](OC(=O)[C@H](O)[C@@H](NC(=O)c4ccccc4)c4ccccc4)C(C)=C1C3(C)C)[C@]1(OC(C)=O)CO[C@@H]1C[C@@H]2O [Paclitaxel, paclitaxel, reference compound]" recordedresult=−4.65

Item under review: CC1CCC2C(C)C(CC(CO)CC3OC4OC5(C)CCC6C(C)CCC(C3C)C46OO5)OC3OC4(C)CCC1C32OO4 (stereo not shown) . Reported Log10TGI50?
−4.45
